- assay: Pharmacokinetics in rat
- Type: in vivo, Wistar Rat
- condition label: male, Wistar, plasma; po, 20 mg/kg in rat; vs IV dosing; read-out: Oral bioavailability (F %)
- Procedure: For pharmacokinetic measurements, healthy male adult Balb/C mice (weighing 20-25 g) or Wistar Rat (weighing 250-350 g) were split into weight matched groups of 3 per group. […] Quantitative analysis of compound in plasma was carried out using LC-MS/MS methods. […] Oral bioavailability (% F) was calculated by taking the ratio of dose-normalised AUC values from oral versus parenteral (IV) dosing.
measured attribute: bioavailability (%)

I = CNc1nc(C)c(-c2nc(Nc3ccc(N4CCN(C(C)=O)CC4)cn3)ncc2C#N)s1
II = Cc1nc(NC2CCCC2)sc1-c1ccnc(Nc2ccc(N3CCOCC3)cn2)n1
Query: Given I and given II , which shows the smaller recorded bioavailability? Give the label of your selection.
Reply: II
(II: 27%, I: 39%)
